The measurements presented in this section are drawn from patent US8710233B2.

Tested on: capsaicin induced hypothermie
METHOD_SUMMARY: Hypothermie assay in the mouse (capsaicin induced hypothermie)
Type: in vivo
STATED_CONDITIONS: 0.1 mg/kg body weight po; mouse; read-out: inhibition hypothermie (n = 5)
Description: V. Hypothermie Assay an der Maus Male NMRI mice (weight 25-35 gram, supplier IFFA CREDO, Bruxelles, Belgium) are used in the hypothermie assay. […] The individual basis value is determined by measuring the body temperature twice in an interval of about half an hour. […] The body temperature is determined 7.5/15 and 30 min after application of capsaicin (i.v.+i.p.) or 15/30/60/90/120 min after application of capsaicin (p.o.+i.p.), respectively. […]
PARAMETER_MEASURED: inhibition in vivo at 0.1 mg/kg (%)

- CC(C(=O)NCc1ccc(C(F)(F)F)nc1N1CCC(Nc2ccccc2)CC1)c1ccc(NS(C)(=O)=O)c(F)c1 (centres unmarked): 24
- CC(C(=O)NCc1ccc(C(F)(F)F)nc1OCCC(C)(C)C)c1ccc(NS(C)(=O)=O)c(F)c1 (centres unmarked): 5
- CC(C(=O)NCc1ccc(C(F)(F)F)cc1N1CCCCCCC1)c1ccc(NS(C)(=O)=O)c(F)c1 (centres unmarked): 40
- CC(C(=O)NCc1ccc(C(F)(F)F)nc1OCc1ccccc1)c1ccc(NS(C)(=O)=O)c(F)c1 (centres unmarked): 24
- CC(C(=O)NCc1ccc(C(C)(C)C)nc1OC1CCCC1)c1ccc(NS(C)(=O)=O)c(F)c1 (centres unmarked): 19

====

TESTED_SYSTEM: VR1/TRPV1 receptor (Homo sapiens)
Sequence (Q8NER1 whole entry): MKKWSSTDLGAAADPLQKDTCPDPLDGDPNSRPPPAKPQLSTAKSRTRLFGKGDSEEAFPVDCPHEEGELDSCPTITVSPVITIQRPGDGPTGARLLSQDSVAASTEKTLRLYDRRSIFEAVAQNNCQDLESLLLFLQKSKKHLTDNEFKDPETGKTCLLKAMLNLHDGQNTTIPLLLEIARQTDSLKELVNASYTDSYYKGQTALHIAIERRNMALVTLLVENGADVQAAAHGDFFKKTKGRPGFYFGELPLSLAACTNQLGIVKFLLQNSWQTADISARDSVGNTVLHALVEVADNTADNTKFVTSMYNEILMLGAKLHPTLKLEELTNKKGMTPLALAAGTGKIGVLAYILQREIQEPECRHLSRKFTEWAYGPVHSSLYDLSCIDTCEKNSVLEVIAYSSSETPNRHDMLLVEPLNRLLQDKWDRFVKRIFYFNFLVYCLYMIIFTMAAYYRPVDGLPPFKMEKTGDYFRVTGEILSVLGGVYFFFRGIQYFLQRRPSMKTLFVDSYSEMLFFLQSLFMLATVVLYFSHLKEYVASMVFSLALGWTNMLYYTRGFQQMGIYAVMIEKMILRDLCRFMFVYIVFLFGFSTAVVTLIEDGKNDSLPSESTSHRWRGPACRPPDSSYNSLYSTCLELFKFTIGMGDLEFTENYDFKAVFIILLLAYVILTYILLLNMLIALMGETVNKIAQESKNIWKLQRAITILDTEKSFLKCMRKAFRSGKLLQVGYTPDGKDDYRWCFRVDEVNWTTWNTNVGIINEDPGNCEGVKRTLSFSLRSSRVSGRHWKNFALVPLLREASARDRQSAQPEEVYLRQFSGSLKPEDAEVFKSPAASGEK
METHOD_SUMMARY: IC50 (human) after pH stimulus
Assay type: cell-based
STATED_CONDITIONS: @ 10 μM; read-out: inhibition in percent, IC50 (human) after pH stimulus
PARAMETER_MEASURED: inhibition at 10 µM (%)

- CC(C(=O)NCc1ccc(C(F)(F)F)nc1N1CCCC1)c1ccc(NS(C)(=O)=O)c(Br)c1 (stereo not shown) [Example 103]: 16
- CC(C(=O)NCc1ccc(C(F)(F)F)nc1N1CCCC1)c1ccc(NS(C)(=O)=O)c(Cl)c1 (stereo not shown) [Example 102]: 18
- C[C@@H](C(=O)NCc1ccc(C(F)(F)F)nc1-c1ccc(F)c(Cl)c1)c1ccc(NS(C)(=O)=O)c(F)c1 [Example 121]: 56
- CC(C(=O)NCc1ccc(C(F)(F)F)nc1N1CCC(N2CCCCC2)CC1)c1ccc(NS(C)(=O)=O)c(F)c1 (stereo not shown) [Example 164]: 30
- CC(C(=O)NCc1ccc(C(F)(F)F)nc1-c1ccc(Cl)c(Cl)c1)c1ccc(NS(C)(=O)=O)c(F)c1 (stereo not shown) [Example 250]: 68
- CC(C(=O)NCc1ccc(C(C)(C)C)nc1OC1CCCCC1)c1ccc(NS(C)(=O)=O)c(F)c1 (stereo not shown) [Example 233]: 63
- CC(C(=O)NCc1ccc(C(F)(F)F)cc1N1CCN(c2ccc(C(F)(F)F)cc2)CC1)c1ccc(NS(C)(=O)=O)c(F)c1 (stereo not shown) [Example 248]: 66

====

TESTED_SYSTEM: vanilloid receptor (VR1) (Homo sapiens, UniProt Q8NER1)
Construct: expressed in transfected cells; host or cells: CHO K1 cells (ECACC), stably transfected
Sequence (Q8NER1 whole entry): as above
METHOD_SUMMARY: FLIPR Ca2+ influx assay on CHO K1 cells transfected with the VR1 gene (pharmacological method II)
Type: cell-based
STATED_CONDITIONS: table 4; capsaicin; read-out: Ki (human) Cap.
PARAMETER_MEASURED: Ki (nM)

- CC(C(=O)NCc1ccc(C(F)(F)F)nc1OCC1CC1(C)C)c1ccc(NS(C)(=O)=O)c(F)c1 (stereo not shown): 1.1
- CC/C=C\COc1nc(C(F)(F)F)ccc1CNC(=O)C(C)c1ccc(NS(C)(=O)=O)c(F)c1 (stereo not shown): 1
- CCCCOc1cc(C(C)(C)C)ccc1CNC(=O)C(C)c1ccc(NS(C)(=O)=O)c(F)c1 (stereo not shown): 1.4
- CCCCOC1CCN(c2nc(C(F)(F)F)ccc2CNC(=O)C(C)c2ccc(NS(C)(=O)=O)c(F)c2)CC1 (stereo not shown): 3.5
- CC1CCN(c2nc(C(C)(C)C)ccc2CNC(=O)C(C)c2ccc(NS(C)(=O)=O)c(F)c2)CC1 (stereo not shown): 1.9
- CC(C)COc1nc(C(F)(F)F)ccc1CNC(=O)C(C)c1ccc(NS(C)(=O)=O)c(F)c1 (stereo not shown): 0.5
- COc1ccc(-c2cc(C(F)(F)F)ccc2CNC(=O)C(C)c2ccc(NS(C)(=O)=O)c(F)c2)cc1OC (stereo not shown): 8.6
